This collection of values is drawn from paper PMC6037852.

biological target: HDAC7 (Homo sapiens, UniProt Q8WUI4)
Sequence (Q8WUI4 whole entry): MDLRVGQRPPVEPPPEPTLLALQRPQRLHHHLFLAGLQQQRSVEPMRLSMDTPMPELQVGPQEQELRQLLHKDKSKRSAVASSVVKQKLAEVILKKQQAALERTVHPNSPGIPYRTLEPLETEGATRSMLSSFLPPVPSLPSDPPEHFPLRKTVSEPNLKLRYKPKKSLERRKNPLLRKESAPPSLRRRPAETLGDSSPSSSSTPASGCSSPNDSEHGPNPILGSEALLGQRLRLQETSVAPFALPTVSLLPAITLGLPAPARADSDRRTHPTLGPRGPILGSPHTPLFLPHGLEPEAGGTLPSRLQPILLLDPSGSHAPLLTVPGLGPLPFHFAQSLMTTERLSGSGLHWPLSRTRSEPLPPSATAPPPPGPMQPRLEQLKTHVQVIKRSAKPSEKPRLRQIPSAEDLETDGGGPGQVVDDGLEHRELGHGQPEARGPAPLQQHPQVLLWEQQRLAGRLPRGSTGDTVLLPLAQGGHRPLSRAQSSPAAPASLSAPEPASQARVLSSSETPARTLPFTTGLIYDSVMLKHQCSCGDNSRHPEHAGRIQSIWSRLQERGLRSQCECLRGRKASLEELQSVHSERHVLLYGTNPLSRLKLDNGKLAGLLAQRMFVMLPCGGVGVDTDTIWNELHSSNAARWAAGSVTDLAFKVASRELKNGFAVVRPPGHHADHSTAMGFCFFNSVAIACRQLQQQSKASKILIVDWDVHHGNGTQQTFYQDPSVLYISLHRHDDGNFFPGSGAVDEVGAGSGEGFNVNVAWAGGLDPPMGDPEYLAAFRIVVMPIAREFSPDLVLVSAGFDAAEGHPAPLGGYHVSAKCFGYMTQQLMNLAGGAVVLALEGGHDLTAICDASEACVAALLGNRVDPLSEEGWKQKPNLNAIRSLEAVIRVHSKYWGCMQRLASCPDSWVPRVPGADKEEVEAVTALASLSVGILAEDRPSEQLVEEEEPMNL
property.measured: IC50

O=C(/C=C/c1ccc(O)c([N+](=O)[O-])c1)CCCCc1ccccc1 [Compound 4i]; 32.7 µM
O=C(CCCCc1ccccc1)CCc1ccc(O)c(F)c1 [Compound 5f]; > 40 µM
O=C(/C=C/c1ccccc1)CCCCc1ccccc1 [Compound 4a]; > 40 µM
O=C(CCCCc1ccccc1)CCc1ccc(O)c(Br)c1 [Compound 5h]; > 40 µM
O=C(/C=C/c1ccc(O)c(Cl)c1)CCCCc1ccccc1 [Compound 4g]; > 40 µM
O=C(/C=C/c1ccc(O)cc1)CCCCc1ccccc1 [Compound 4b]; > 40 µM
O=C(CCCCc1ccccc1)CCc1ccccc1 [Compound 5a]; > 40 µM
COc1cc(/C=C/C(=O)CCCCc2ccccc2)ccc1O [Compound 4k]; > 40 µM
O=C(/C=C/c1ccc(O)c(O)c1)CCCc1ccccc1 [Compound 7d]; 9.4 µM
O=C(/C=C/c1cccc(O)c1)CCCCc1ccccc1 [Compound 4d]; > 40 µM
O=C(/C=C/c1cccc(O)c1O)CCCCc1ccccc1 [Compound 4e]; 8.6 µM
O=C(CCc1ccccc1)CCc1ccc(O)c(O)c1 [Compound 8c]; 8.9 µM

====

Overview of reported IC50 across a group of molecules:
biological target: Aβ1-42 (Homo sapiens, UniProt P05067); construct: Aβ1-42 peptides were purchased from Kelowna International Scientific Inc; experiment: Inhibition of Aβ1-42 self-aggregation, thioflavin-T (ThT) fluorescence assay; conditions: 24 h, read-out: Beta-Amyloid Aggregation IC50
Sequence (P05067 672-713 limits assumed): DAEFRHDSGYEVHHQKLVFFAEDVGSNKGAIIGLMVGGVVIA
property.measured: IC50

O=C(/C=C/c1ccc(O)cc1)CCCCc1ccccc1; > 10 µM
O=C(/C=C/c1ccc(O)c(F)c1)CCCCc1ccccc1; > 10 µM
O=C(CCCc1ccccc1)CCc1ccc(O)c(O)c1; 8.5 µM
O=C(CCCCc1ccccc1)CCc1ccc(O)cc1; > 10 µM
O=C(/C=C/c1ccc(O)c([N+](=O)[O-])c1)CCCCc1ccccc1; > 10 µM
O=C(/C=C/c1cc(O)c(O)c(O)c1)CCCCc1ccccc1; 3.6 µM
COc1cc(CCC(=O)CCCCc2ccccc2)ccc1O; > 10 µM
O=C(/C=C/c1ccc(O)c(O)c1)c1ccccc1; 2.3 µM
O=C(/C=C/c1ccccc1)CCCCc1ccccc1; > 10 µM
O=C(CCCCc1ccccc1)CCc1ccc(O)c(F)c1; > 10 µM

====

System: HDAC9 (Homo sapiens) | Read-out: IC50
Sequence (Q9UKV0 whole entry): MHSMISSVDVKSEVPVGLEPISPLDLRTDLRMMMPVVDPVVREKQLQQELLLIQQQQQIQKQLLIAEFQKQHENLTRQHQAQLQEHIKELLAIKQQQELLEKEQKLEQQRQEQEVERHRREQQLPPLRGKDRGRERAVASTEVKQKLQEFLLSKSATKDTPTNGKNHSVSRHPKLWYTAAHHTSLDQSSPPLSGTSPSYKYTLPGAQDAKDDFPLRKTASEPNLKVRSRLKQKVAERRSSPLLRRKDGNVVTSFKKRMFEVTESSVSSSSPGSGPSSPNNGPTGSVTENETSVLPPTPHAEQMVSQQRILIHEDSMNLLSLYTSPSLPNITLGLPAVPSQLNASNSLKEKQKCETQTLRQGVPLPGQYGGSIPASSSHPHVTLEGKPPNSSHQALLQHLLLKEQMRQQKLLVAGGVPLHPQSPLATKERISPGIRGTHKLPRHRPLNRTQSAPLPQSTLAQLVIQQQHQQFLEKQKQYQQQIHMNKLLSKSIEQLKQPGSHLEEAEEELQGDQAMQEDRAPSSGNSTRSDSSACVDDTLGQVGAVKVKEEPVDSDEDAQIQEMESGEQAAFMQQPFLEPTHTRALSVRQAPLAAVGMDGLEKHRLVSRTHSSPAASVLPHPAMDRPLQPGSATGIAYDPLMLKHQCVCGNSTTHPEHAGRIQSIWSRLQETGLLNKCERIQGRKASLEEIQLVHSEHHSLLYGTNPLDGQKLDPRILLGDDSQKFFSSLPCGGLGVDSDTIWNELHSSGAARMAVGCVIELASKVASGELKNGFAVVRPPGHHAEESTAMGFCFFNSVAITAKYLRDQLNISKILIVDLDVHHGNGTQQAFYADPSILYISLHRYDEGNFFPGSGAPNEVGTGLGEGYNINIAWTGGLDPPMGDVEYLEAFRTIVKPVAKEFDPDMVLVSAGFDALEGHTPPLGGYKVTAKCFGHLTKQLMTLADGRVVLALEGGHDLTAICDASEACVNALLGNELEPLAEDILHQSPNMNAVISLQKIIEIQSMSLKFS
property.measured: IC50

O=C(/C=C/c1ccc(O)c(O)c1)CCc1ccccc1; 36.8 µM
O=C(/C=C/c1ccc(O)c(Cl)c1)CCCCc1ccccc1; > 40 µM
O=C(/C=C/c1cc(O)c(O)c(O)c1)CCCCc1ccccc1; 15.4 µM
O=C(/C=C/c1ccccc1)CCCCc1ccccc1; > 40 µM
O=C(CCCCc1ccccc1)CCc1cccc(O)c1O; 9.3 µM
O=C(CCc1ccc(O)c(O)c1)c1ccccc1; 14.2 µM
O=C(CCc1ccc(O)c(O)c1)Cc1ccccc1; 37.1 µM
O=C(/C=C/c1ccc(O)c([N+](=O)[O-])c1)CCCCc1ccccc1; > 40 µM
O=C(/C=C/c1ccc(O)c(O)c1)c1ccccc1; 18.4 µM
O=C(/C=C/c1ccc(O)c(O)c1)CCCCc1ccccc1; 17.6 µM

====

Molecular target: Aβ1-42 (Homo sapiens, UniProt P05067)
Construct: Aβ1-42 peptides were purchased from Kelowna International Scientific Inc
Test: Inhibition of Aβ1-42 self-aggregation, thioflavin-T (ThT) fluorescence assay
Conditions: 24 h, read-out: Beta-Amyloid Aggregation IC50
Experimental: Inhibition of Aβ1-42 self-aggregation was measured by thioflavin-T (ThT) fluorescence assay ([Hudson et al., 2009]). […] Fluorescence was measured by Victor 2X microplate spectrophotometer (excitation λ = 440 nm, emission λ = 486 nm), and adapted for 96-well microtiter plates. […] The IC50 values were calculated by the linear regression model of the data. […]
property.measured: IC50

O=C(/C=C/c1cccc(O)c1O)CCCCc1ccccc1 [Compound 4e]; 3.4 µM
O=C(CCc1ccc(O)c(O)c1)c1ccccc1 [Compound 8a]; 8.6 µM
O=C(CCCCc1ccccc1)CCc1ccc(O)c(Br)c1 [Compound 5h]; > 10 µM
O=c1c(O)c(-c2ccc(O)cc2O)oc2cc(O)cc(O)c12 [Morin, morin, reference compound]; 8.8 µM
O=C(CCc1ccc(O)c(O)c1)Cc1ccccc1 [Compound 8b]; 8.1 µM
